# IC50 values compiled below
- tgt: Apoptotic protease-activating factor 1 (Homo sapiens)
- Sequence (O14727 whole entry): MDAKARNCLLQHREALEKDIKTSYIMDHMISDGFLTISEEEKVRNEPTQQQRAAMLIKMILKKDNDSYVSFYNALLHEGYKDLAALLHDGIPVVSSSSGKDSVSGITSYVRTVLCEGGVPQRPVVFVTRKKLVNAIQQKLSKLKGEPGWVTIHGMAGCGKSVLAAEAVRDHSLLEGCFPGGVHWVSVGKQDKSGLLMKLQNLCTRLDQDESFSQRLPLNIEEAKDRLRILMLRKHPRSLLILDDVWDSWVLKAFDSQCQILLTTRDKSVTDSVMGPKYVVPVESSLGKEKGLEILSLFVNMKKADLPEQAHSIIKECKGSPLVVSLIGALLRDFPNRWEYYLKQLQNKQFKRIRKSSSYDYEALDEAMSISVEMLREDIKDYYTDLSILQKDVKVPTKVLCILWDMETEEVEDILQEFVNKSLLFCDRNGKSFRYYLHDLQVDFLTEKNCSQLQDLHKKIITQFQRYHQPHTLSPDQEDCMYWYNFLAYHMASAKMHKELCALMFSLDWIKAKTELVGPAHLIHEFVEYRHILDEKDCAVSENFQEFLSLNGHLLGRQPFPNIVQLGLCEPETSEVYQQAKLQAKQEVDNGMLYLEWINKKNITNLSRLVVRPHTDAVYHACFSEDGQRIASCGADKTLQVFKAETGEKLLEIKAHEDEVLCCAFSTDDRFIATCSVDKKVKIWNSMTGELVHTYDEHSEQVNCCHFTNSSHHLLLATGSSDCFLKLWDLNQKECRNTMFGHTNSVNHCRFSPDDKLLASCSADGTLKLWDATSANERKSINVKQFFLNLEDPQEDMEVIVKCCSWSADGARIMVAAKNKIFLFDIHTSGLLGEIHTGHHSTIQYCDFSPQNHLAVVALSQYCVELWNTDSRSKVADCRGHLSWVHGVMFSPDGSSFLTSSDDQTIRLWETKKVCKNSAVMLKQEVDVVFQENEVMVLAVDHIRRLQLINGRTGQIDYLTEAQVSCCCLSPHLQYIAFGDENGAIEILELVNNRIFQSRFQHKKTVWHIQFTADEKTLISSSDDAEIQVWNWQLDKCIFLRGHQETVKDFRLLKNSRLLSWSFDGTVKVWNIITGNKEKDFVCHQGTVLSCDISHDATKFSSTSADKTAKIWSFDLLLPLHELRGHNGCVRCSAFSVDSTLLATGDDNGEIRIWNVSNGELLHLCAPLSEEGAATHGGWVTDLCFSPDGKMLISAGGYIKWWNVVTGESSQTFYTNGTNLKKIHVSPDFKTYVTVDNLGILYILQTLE
- Type: functional
Activity calls are given as the source filed them.

[
  {
    "compound": "Cc1ccc(C(=O)NC2(O)C(=O)c3ccccc3C2=O)cc1C",
    "tgt": "Apoptotic protease-activating factor 1 (Homo sapiens)",
    "IC50": "5.13 µM (active)"
  },
  {
    "compound": "O=C(CCn1c2c(c3ccccc31)CCCC2)NNC(=O)c1ccc(Cl)c([N+](=O)[O-])c1",
    "tgt": "Apoptotic protease-activating factor 1 (Homo sapiens)",
    "IC50": "0.798 µM (active)"
  },
  {
    "compound": "CCCCOc1ccc(C(=O)NCC(=O)NCC(c2cccs2)N2CCOCC2)cc1 (stereo not drawn)",
    "tgt": "Apoptotic protease-activating factor 1 (Homo sapiens)",
    "IC50": "> 100 µM (inactive)"
  }
]

Q) Using the record for `CN1CCN(C2=C(NS(=O)(=O)c3ccccc3)C(=O)c3ccccc3C2=O)CC1` , state its measured IC50.
A) 39.1 µM (active)

Q) # return recorded IC50 for input `CC[C@@H](C)[C@H](CNC)NC[C@@H](Cc1cccc2ccccc12)NCCc1cccc(C(F)(F)F)c1`
A) 44.1 µM (active)

---

Measured AC50 of individual entries
- tgt: Cytochrome P450 2C19 (Homo sapiens, UniProt P33261)
- Sequence (P33261 whole entry): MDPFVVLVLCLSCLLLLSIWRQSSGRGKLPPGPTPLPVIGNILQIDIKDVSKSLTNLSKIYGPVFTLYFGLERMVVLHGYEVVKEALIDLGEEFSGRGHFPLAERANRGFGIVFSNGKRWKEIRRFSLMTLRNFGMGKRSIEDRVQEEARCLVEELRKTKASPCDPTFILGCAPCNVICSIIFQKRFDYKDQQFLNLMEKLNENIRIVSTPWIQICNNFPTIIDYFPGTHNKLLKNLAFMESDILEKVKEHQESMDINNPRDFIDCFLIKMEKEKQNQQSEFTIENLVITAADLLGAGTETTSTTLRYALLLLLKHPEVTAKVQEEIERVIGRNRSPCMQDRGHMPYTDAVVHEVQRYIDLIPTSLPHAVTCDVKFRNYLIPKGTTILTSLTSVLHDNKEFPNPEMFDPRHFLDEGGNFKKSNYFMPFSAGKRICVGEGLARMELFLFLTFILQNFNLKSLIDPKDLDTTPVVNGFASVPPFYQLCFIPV
- test_details: Cytochrome panel assay with activity outcomes. Panel member name: p450-cyp2c19 Compounds with AC50 equal or less than 10 uM are considered active
- Format: functional
- measurement_conditions: read-out: AC50

[
  {
    "compound": "Cl.Fc1ccc(CCNCc2cccc(Cl)c2)cc1",
    "observed_measurement": "1 µM (inconclusive)"
  },
  {
    "compound": "CCCCCCNC=C1C(=O)N(C)C(=O)N(C)C1=O",
    "observed_measurement": "15.8 µM (inconclusive)"
  },
  {
    "compound": "CC(C)OCCCN1C(=O)c2ccccc2C1C(=O)NC1CCCCC1 (stereo not given)",
    "observed_measurement": "35.5 µM (inconclusive)"
  }
]

Q) State its AC50 for this compound: `COc1ccc(CCN2CCC(Nc3nc4ccccc4n3Cc3ccc(F)cc3)CC2)cc1`
A) 7.94 µM (inconclusive)

Q) For `COC(=O)[C@@]1(Cc2ccc(F)cc2)[C@H]2c3cc(C(=O)N4CCCC4)n(Cc4cccc5ccccc45)c3C[C@H]2CN1C(=O)c1ccccc1` , write its AC50.
A) 7.94 µM (inconclusive)

Q) Quick one: give measured AC50 for CCOc1ccc(CNC(=O)C2CC(=O)N(C3CCCC3)C2)cc1OC (stereo not given)
A) 39.8 µM (inconclusive)

---

- test_details: luciferase reporter signal suppression in cells – H4 neuroglioma cells, luminescence, dose response (AID 1990)
- Format: functional, cell-based
Activity calls are given as the source filed them.
measurement_label: EC50

Q) # return recorded EC50 for entry OC(CSc1ccccc1Cl)CN1CCN(c2ccc(F)cc2)CC1 (stereo not given)
A) > 120 µM (not active)

Q) Report measured EC50; entry is `Cc1c(Cc2ccccc2)sc(NC(=O)/C=C/c2cccc3ccccc23)c1C(N)=O`
A) 13.3 µM (inconclusive)

Q) Recall and state the measured EC50 for `CN(C)CCCN(C(=O)CCc1ccccc1)c1nc2ccc(Cl)cc2s1` .
A) > 60 µM (not active)

Q) Give recorded EC50. `Brc1ccc(N=Nc2ccc3ccccc3n2)cc1`
A) 0.107 µM (active)

Q) Return EC50 for the following molecule: `C=CCNc1nc(N)c([N+](=O)[O-])c(N2CCCCCC2)n1`
A) > 120 µM (not active)
